test_system: hMC4R (Homo sapiens, UniProt P32245)
Construct: Flag; expressed in transfected cells
Sequence (P32245 whole entry, looked up): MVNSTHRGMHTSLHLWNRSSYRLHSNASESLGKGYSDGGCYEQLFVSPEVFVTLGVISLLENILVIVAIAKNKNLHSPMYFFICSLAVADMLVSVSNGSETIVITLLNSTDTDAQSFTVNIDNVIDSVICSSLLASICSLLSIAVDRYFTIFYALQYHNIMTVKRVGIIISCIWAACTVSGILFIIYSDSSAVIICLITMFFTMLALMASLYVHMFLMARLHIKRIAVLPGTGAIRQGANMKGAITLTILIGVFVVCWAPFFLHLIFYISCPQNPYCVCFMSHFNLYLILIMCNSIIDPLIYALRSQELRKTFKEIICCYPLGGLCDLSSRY
test_name: cAMP Signaling | EC50 (nM)
Square brackets hold non-standard residues; d marks the D form. Peptide text beside a SMILES is read from it.
EC50 reference
Write down the numeric answer in nM and omit the unit.

N=C(N)NCCC[C@H](NC(=O)[C@@H](Cc1ccccc1)NC(=O)[C@H](Cc1c[nH]cn1)NC(=O)CNC(=O)[C@@H]1CCCN1C(=O)CNC(=O)[C@@H]1CCCN1C(=O)CNC(=O)[C@@H]1CCCN1C(=O)CNC(=O)[C@@H]1CCCN1C(=O)CNC(=O)[C@@H]1CCCN1C(=O)CNC(=O)[C@@H]1CCCN1)C(=O)N[C@@H](Cc1c[nH]c2ccccc12)C(N)=O [CJL-1-41, (Pro-Gly)6-His-DPhe-Arg-Trp-NH2] (H-PGPGPGPGPGPGH[dF]RW-NH2; N-terminus assumed)
1.1

Lab note: next compound to report on.
Ask | Provide the documented EC50 with hMC4R (Homo sapiens, UniProt P32245) as the system for CC(=O)N[C@@H](Cc1c[nH]cn1)C(=O)N[C@H](Cc1ccccc1)C(=O)N[C@@H](CCCNC(=N)N)C(=O)N[C@@H](Cc1c[nH]c2ccccc12)C(=O)N1CCC[C@H]1C(=O)NCC(=O)N1CCC[C@H]1C(=O)NCC(=O)N1CCC[C@H]1C(=O)NCC(=O)N1CCC[C@H]1C(=O)NCC(=O)N1CCC[C@H]1C(=O)NCC(=O)N1CCC[C@H]1C(=O)NCC(=O)N[C@@H](Cc1c[nH]cn1)C(=O)N[C@H](Cc1ccccc1)C(=O)N[C@@H](CCCNC(=N)N)C(=O)N[C@@H](Cc1c[nH]c2ccccc12)C(N)=O [CJL-1-31] (Ac-H[dF]RWPGPGPGPGPGPGH[dF]RW-NH2)
Reply | 0.95
